Target: pancreatic lipase (PL) (Sus scrofa, UniProt P00591)
Construct: lipase (porcine pancreas); purchased Shanghai Yuanye Co., Ltd., Shanghai, China; host or cells: porcine pancreas
Sequence (P00591 1-450): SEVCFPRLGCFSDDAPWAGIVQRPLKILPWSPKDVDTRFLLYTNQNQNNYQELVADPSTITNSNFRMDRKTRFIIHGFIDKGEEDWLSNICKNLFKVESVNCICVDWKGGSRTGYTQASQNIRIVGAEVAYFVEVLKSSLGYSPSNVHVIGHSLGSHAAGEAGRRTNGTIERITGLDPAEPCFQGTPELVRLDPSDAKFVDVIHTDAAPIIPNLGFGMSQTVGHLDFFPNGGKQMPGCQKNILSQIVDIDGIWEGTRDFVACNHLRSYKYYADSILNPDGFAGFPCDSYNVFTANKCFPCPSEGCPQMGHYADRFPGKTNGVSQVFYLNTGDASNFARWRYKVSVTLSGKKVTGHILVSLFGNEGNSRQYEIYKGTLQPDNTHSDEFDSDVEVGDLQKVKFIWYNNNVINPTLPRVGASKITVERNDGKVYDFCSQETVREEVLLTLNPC
Assay: FT-IR spectroscopy secondary structure analysis of PL-porphyrin complex
Design: species or system porcine
Conditions: PL:porphyrin molar ratio 1:2; PL alone 16.30 ± 0.04
Assay Metric: Random Coil of PL in complex (%)

Line Notation	System Under Test	Assay Metric	Numeric Result
O=C(O)c1ccc(-c2c3nc(c(-c4ccc(C(=O)O)cc4)c4ccc([nH]4)c(-c4ccc(C(=O)O)cc4)c4nc(c(-c5ccc(C(=O)O)cc5)c5ccc2[nH]5)C=C4)C=C3)cc1	pancreatic lipase (PL) (Sus scrofa, UniProt P00591)	Random Coil of PL in complex	24.70
Nc1ccc(-c2c3nc(c(-c4ccc(N)cc4)c4ccc([nH]4)c(-c4ccc(N)cc4)c4nc(c(-c5ccc(N)cc5)c5ccc2[nH]5)C=C4)C=C3)cc1	pancreatic lipase (PL) (Sus scrofa, UniProt P00591)	Random Coil of PL in complex	24.25
O=C([O-])c1ccc(C2=C3C=CC(=N3)C(c3ccc(C(=O)[O-])cc3)=C3C=CC(=N3)C(=c3ccc(=C([O-])[O-])cc3)c3ccc([n-]3)C(c3ccc(C(=O)[O-])cc3)=C3C=CC2=N3)cc1.[67Cu+2].[H+].[H+].[H+].[H+]	pancreatic lipase (PL) (Sus scrofa, UniProt P00591)	Random Coil of PL in complex	23.40
Oc1ccc(-c2c3nc(c(-c4ccc(O)cc4)c4ccc([nH]4)c(-c4ccc(O)cc4)c4nc(c(-c5ccc(O)cc5)c5ccc2[nH]5)C=C4)C=C3)cc1	pancreatic lipase (PL) (Sus scrofa, UniProt P00591)	Random Coil of PL in complex	20.38

###

Each entry below carries its reported Kq (quenching rate constant).
Biological target: pancreatic lipase (PL) (Sus scrofa, UniProt P00591)
Construct: lipase (porcine pancreas); purchased Shanghai Yuanye Co., Ltd., Shanghai, China; host or cells: porcine pancreas
Sequence (P00591 1-450): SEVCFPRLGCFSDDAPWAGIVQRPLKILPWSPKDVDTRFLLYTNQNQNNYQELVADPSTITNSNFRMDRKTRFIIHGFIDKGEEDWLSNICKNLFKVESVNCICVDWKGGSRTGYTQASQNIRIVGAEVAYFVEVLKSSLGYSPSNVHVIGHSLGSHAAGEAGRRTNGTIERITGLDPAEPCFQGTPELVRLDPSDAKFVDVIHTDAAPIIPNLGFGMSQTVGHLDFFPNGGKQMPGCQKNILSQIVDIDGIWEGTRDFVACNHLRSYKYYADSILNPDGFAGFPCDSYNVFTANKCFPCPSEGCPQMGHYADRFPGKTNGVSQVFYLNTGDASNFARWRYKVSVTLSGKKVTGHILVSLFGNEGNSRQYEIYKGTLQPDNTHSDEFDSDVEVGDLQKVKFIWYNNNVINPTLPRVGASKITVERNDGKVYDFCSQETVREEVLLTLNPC
Assay: Fluorescence quenching and binding interaction with PL (Stern-Volmer, double logarithmic, Van't Hoff)
Parameters: species or system porcine
Details: T 298 K
Excerpt: Judged by the Stern–Volmer equation, the formula is referred to (3):(3) F0/F=1+KSV[Q]=1+Kqτ0[Q], The modified Stern–Volmer equation [34], formula reference (4):(4) F0/F=e^KSV[Q]=e^Kqτ0[Q], The double logarithmic equation:(5) logF0−F/F=logKa+nlog[Q], In the formula, F0 and F are the fluorescence intensities of the enzyme before and after the addition of four porphyrin compounds. […]

Line Notation	Kq (quenching rate constant)
Nc1ccc(-c2c3nc(c(-c4ccc(N)cc4)c4ccc([nH]4)c(-c4ccc(N)cc4)c4nc(c(-c5ccc(N)cc5)c5ccc2[nH]5)C=C4)C=C3)cc1	9.70 ± 0.11 ×10^12 L/mol/s
Oc1ccc(-c2c3nc(c(-c4ccc(O)cc4)c4ccc([nH]4)c(-c4ccc(O)cc4)c4nc(c(-c5ccc(O)cc5)c5ccc2[nH]5)C=C4)C=C3)cc1	1.36 ± 0.02 ×10^12 L/mol/s
O=C(O)c1ccc(-c2c3nc(c(-c4ccc(C(=O)O)cc4)c4ccc([nH]4)c(-c4ccc(C(=O)O)cc4)c4nc(c(-c5ccc(C(=O)O)cc5)c5ccc2[nH]5)C=C4)C=C3)cc1	4.60 ± 0.07 ×10^12 L/mol/s
O=C([O-])c1ccc(C2=C3C=CC(=N3)C(c3ccc(C(=O)[O-])cc3)=C3C=CC(=N3)C(=c3ccc(=C([O-])[O-])cc3)c3ccc([n-]3)C(c3ccc(C(=O)[O-])cc3)=C3C=CC2=N3)cc1.[67Cu+2].[H+].[H+].[H+].[H+]	2.36 ± 0.01 ×10^12 L/mol/s

###

Biological target: pancreatic lipase (PL) (Sus scrofa)
Construct: lipase (porcine pancreas); purchased Shanghai Yuanye Co., Ltd., Shanghai, China; host or cells: porcine pancreas
Experiment: Fluorescence quenching and binding interaction with PL (Stern-Volmer, double logarithmic, Van't Hoff)
Parameters: species or system porcine
Details: Van't Hoff, 298-310 K
Assay Metric: ΔS^0 (J/mol/k)

Line Notation	Assay Metric	Numeric Result
O=C([O-])c1ccc(C2=C3C=CC(=N3)C(c3ccc(C(=O)[O-])cc3)=C3C=CC(=N3)C(=c3ccc(=C([O-])[O-])cc3)c3ccc([n-]3)C(c3ccc(C(=O)[O-])cc3)=C3C=CC2=N3)cc1.[67Cu+2].[H+].[H+].[H+].[H+]	ΔS^0	150.70
Nc1ccc(-c2c3nc(c(-c4ccc(N)cc4)c4ccc([nH]4)c(-c4ccc(N)cc4)c4nc(c(-c5ccc(N)cc5)c5ccc2[nH]5)C=C4)C=C3)cc1	ΔS^0	−142.66
Oc1ccc(-c2c3nc(c(-c4ccc(O)cc4)c4ccc([nH]4)c(-c4ccc(O)cc4)c4nc(c(-c5ccc(O)cc5)c5ccc2[nH]5)C=C4)C=C3)cc1	ΔS^0	−309.86
O=C(O)c1ccc(-c2c3nc(c(-c4ccc(C(=O)O)cc4)c4ccc([nH]4)c(-c4ccc(C(=O)O)cc4)c4nc(c(-c5ccc(C(=O)O)cc5)c5ccc2[nH]5)C=C4)C=C3)cc1	ΔS^0	−116.60

###

Target: pancreatic lipase (PL) (Sus scrofa, UniProt P00591)
Construct: lipase (porcine pancreas); purchased Shanghai Yuanye Co., Ltd., Shanghai, China; host or cells: porcine pancreas
Sequence (P00591 1-450): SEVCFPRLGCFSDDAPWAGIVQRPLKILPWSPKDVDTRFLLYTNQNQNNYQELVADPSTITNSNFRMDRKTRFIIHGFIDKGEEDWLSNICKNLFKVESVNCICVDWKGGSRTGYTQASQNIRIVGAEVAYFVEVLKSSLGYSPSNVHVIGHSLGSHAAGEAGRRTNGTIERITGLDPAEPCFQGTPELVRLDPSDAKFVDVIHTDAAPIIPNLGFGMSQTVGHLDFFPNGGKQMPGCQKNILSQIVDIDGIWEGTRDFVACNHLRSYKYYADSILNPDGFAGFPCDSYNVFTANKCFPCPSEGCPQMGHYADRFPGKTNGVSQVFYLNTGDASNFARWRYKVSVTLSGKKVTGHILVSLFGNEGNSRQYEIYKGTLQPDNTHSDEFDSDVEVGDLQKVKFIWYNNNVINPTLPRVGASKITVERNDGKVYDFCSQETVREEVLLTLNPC
Experiment: Fluorescence quenching and binding interaction with PL (Stern-Volmer, double logarithmic, Van't Hoff)
Design: species or system porcine
Settings: T 304 K
Assay Metric: n (number of binding sites)

Compound	Numeric Result
Oc1ccc(-c2c3nc(c(-c4ccc(O)cc4)c4ccc([nH]4)c(-c4ccc(O)cc4)c4nc(c(-c5ccc(O)cc5)c5ccc2[nH]5)C=C4)C=C3)cc1 [THPP]	1.38
O=C([O-])c1ccc(C2=C3C=CC(=N3)C(c3ccc(C(=O)[O-])cc3)=C3C=CC(=N3)C(=c3ccc(=C([O-])[O-])cc3)c3ccc([n-]3)C(c3ccc(C(=O)[O-])cc3)=C3C=CC2=N3)cc1.[67Cu+2].[H+].[H+].[H+].[H+] [Cu-TCPP]	0.95
O=C(O)c1ccc(-c2c3nc(c(-c4ccc(C(=O)O)cc4)c4ccc([nH]4)c(-c4ccc(C(=O)O)cc4)c4nc(c(-c5ccc(C(=O)O)cc5)c5ccc2[nH]5)C=C4)C=C3)cc1 [TCPP, meso-Tetra (4-carboxyphenyl) porphine]	1.26
Nc1ccc(-c2c3nc(c(-c4ccc(N)cc4)c4ccc([nH]4)c(-c4ccc(N)cc4)c4nc(c(-c5ccc(N)cc5)c5ccc2[nH]5)C=C4)C=C3)cc1 [TAPP]	1.01
